experimental system: MCL-1 (Homo sapiens, UniProt Q07820)
Sequence (Q07820 whole entry): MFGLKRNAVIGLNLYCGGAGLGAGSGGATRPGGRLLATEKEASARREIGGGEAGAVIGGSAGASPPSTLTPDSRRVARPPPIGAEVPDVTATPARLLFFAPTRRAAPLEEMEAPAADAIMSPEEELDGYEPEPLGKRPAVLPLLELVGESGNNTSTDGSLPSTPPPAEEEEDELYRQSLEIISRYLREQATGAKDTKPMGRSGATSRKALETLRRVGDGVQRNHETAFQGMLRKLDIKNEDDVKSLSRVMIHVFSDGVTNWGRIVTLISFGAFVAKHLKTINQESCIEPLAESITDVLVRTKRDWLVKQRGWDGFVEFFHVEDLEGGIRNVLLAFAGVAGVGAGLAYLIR
procedure summary: Protein-protein interaction assay MCL-1/Noxa BH3 peptide (MCL-1 assay), TR-FRET
Type: binding
condition notes: MBP-MCL-1 / Noxa BH3-derived peptide, median
measurement name: IC50 (nM)

Example entries begin here.
{"compound": "Cc1nn(C)c2c1-c1cccc3c(CCCOc4cccc5cc(Cl)ccc45)c(C(=O)O)n(c13)CCCCOC2 (single isomer, unassigned; enantiomer 1) [Example 041]", "reading": 4.44}
{"compound": "Cn1nc(COc2ccc(N3CCOCC3)cc2)c2c1COCCCCn1c(C(=O)O)c(CCCOc3cccc4ccccc34)c3cccc-2c31 (single isomer, unassigned; enantiomer 1) [Example 122]", "reading": 57.7}
{"compound": "COc1ccc2c(CCCOc3cccc4ccccc34)c(C(=O)O)n3c2c1-c1c(nn(C)c1C)COCCCC3 (single isomer, unassigned; enantiomer 2) [Example 351]", "reading": 2030}
{"compound": "COCCn1nc2c(c1C1CC1)-c1cccc3c(CCCOc4cccc5ccccc45)c(C(=O)O)n(c13)CCCCOC2 (single isomer, unassigned; enantiomer 2) [Example 086]", "reading": 72.8}
{"compound": "Cc1c2c(nn1C)COCCCCn1c(C(=O)O)c(CCc3ccc(C(F)(F)F)cc3)c3cccc-2c31 (racemic) [Example 355]", "reading": 1510}
{"compound": "Cn1ccnc1COCc1nn(C)c2c1-c1cccc3c(CCCOc4cccc5ccccc45)c(C(=O)O)n(c13)CCCCOC2 (single isomer, unassigned) [Example 232]", "reading": 9.74}
{"compound": "CCc1nn(C)c2c1-c1cccc3c(CCCOc4cccc5c4CCCC5)c(C(=O)O)n(c13)CCCCOC2 (racemic) [Example 291]", "reading": 2.38}
{"compound": "CCc1c2c(nn1C)COCCCCn1c(C(=O)O)c(CCCOc3cccc4ccccc34)c3cccc-2c31 (racemic) [Example 147]", "reading": 3.77}

a: Cn1nc2c(c1C(F)(F)F)-c1cccc3c(CCCOc4cccc5ccccc45)c(C(=O)O)n(c13)CCCCOC2 (single isomer, unassigned; enantiomer 1) [Example 194]
b: CCc1nn(C)c2c1-c1cccc3c(CCCOc4cccc5cc(C(F)(F)F)ccc45)c(C(=O)O)n(c13)CCCCOC2 (single isomer, unassigned; enantiomer 2) [Example 315]
API: POST /compare with a and b ; response names the item with higher IC50. # answer = label of selected item
b

----------
experimental system: UniProt:Q07820
procedure summary: Protein-protein interaction assay MCL-1/Noxa BH3 peptide (MCL-1 assay), TR-FRET
Format: binding
condition notes: MBP-MCL-1 / Noxa BH3-derived peptide, median
measurement name: IC50 (nM)

a: Cc1ccc2c(C(C)CCOc3cccc4ccccc34)c(C(=O)O)n3c2c1-c1c(C)nn(C)c1COCCCC3 (single isomer, unassigned) [Example 260]
b: CCOCc1nn(C)c2c1-c1cccc3c(CCCOc4cccc5ccccc45)c(C(=O)O)n(c13)CCCCOC2 (single isomer, unassigned; enantiomer 2) [Example 170]
c: COC1(c2ccc(OCc3nn(C)c4c3-c3cccc5c(CCCOc6cccc7ccccc67)c(C(=O)O)n(c35)CCCCOC4)cc2)CCOCC1 (racemic) [Example 1-65]
Arrange the above in rising order of IC50. Lab note: final answer is the ordered label list.
b, a, c
(b: 2.97 nM, a: 8.75 nM, c: 31 nM)

a: Cn1nc(CN2CCCC2)c2c1COCCCCn1c(C(=O)O)c(CCCOc3cccc4ccccc34)c3cccc-2c31 (racemic) [Example 335]
b: Cc1nn(C)c2c1-c1cccc3c(CCCOc4cccc5cc(C(F)(F)F)ccc45)c(C(=O)O)n(c13)CCCCOC2
a or b : whose IC50 is greater? Indicate your choice by writing its label.
a

----------
experimental system: MCL-1 (Homo sapiens)
procedure summary: Protein-protein interaction assay MCL-1/Noxa BH3 peptide (MCL-1 assay), TR-FRET
Type: binding
condition notes: MBP-MCL-1 / Noxa BH3-derived peptide, median
measurement name: IC50 (nM)

Study these solved cases before continuing.
{"compound": "Cn1nc(COc2cncnc2)c2c1COCCCCn1c(C(=O)O)c(CCCOc3cccc4ccccc34)c3cccc-2c31 (single isomer, unassigned) [Example 212]", "experimental system": "MCL-1 (Homo sapiens)", "unit text": "nM", "IC50": 6.37}
{"compound": "Cc1nn(C)c2c1-c1cccc3c(CCCOc4cccc5cc(Cl)ccc45)c(C(=O)O)n(c13)CCCCOC2 (racemic) [Example 040]", "experimental system": "MCL-1 (Homo sapiens)", "unit text": "nM", "IC50": 14.4}
{"compound": "COc1ccc(OCc2nn(C)c3c2-c2cccc4c(CCCOc5cccc6ccccc56)c(C(=O)O)n(c24)CCCCOC3)cc1 (single isomer, unassigned; enantiomer 1) [Example 320]", "experimental system": "MCL-1 (Homo sapiens)", "unit text": "nM", "IC50": 22.6}

P: CN1CCCn2c(C(=O)O)c(CCCOc3cccc4ccccc34)c3cccc(c32)-c2c(CCN3CCOCC3)nn(C)c2C1 (single isomer, unassigned; enantiomer 1) [Example 125]
Q: CCc1nn(CCN2CCOCC2)c2c1-c1cccc3c(CCCOc4cccc5ccccc45)c(C(=O)O)n(c13)CCCCOC2 (single isomer, unassigned; enantiomer 2) [Example 200]
Sorting ascending by IC50, which comes first: P or Q ? State your choice using its label.
P
(P: 10.8 nM, Q: 24.8 nM)

----------
experimental system: MCL-1 (Homo sapiens, UniProt Q07820)
procedure summary: Protein-protein interaction assay MCL-1/Noxa BH3 peptide (MCL-1 assay), TR-FRET
Type: binding
condition notes: MBP-MCL-1 / Noxa BH3-derived peptide, median
measurement name: IC50 (nM)

The examples below pair each entry with its known result.
{"compound": "Cn1nc(COc2ccc(N3CCNCC3)cc2)c2c1COCC=CCn1c(C(=O)O)c(CCCOc3cccc4ccccc34)c3cccc-2c31 (racemic) [Example 1-2]", "unit text": "nM", "reading": 70.6}
{"compound": "Cn1nc(COc2ccc(S(C)(=O)=O)cc2)c2c1COCCCCn1c(C(=O)O)c(CCCOc3cccc4ccccc34)c3cccc-2c31 (single isomer, unassigned) [Example 1-55]", "unit text": "nM", "reading": 167}
{"compound": "Cc1nn(C)c2c1-c1cccc3c(CCCOc4cccc5c4CCCC5)c(C(=O)O)n(c13)CCCCOC2 (racemic) [Example 006]", "unit text": "nM", "reading": 8.31}

1: CN1CCCn2c(C(=O)O)c(CCCOc3cccc4ccccc34)c3cccc(c32)-c2c(nn(C)c2COc2ccc(N3CCN(S(=O)(=O)N(C)C)CC3)cc2)C1 (single isomer, unassigned; enantiomer 2) [Example 1-113]
2: Cn1nc(COC(=O)NCC(F)(F)F)c2c1COCCCCn1c(C(=O)O)c(CCCOc3cccc4ccccc34)c3cccc-2c31 (single isomer, unassigned; enantiomer 1) [Example 343]
3: CCS(=O)(=O)N1CCN(c2ccc(N3CCCn4c(C(=O)O)c(CCCOc5cccc6ccccc56)c5cccc(c54)-c4c(C)nn(C)c4C3)cc2)CC1 (single isomer, unassigned; enantiomer 1) [Example 1-109]
4: Cn1nc2c(c1CN1CCOCC1)-c1cccc3c(CCCOc4cccc5ccccc45)c(C(=O)O)n(c13)CCOCCOC2 (racemic) [Example 087]
Sort (4 compounds) by IC50: min first. Use the labels to give the ranking in the order requested.
3, 1, 4, 2
(3: 18.5 nM, 1: 27.7 nM, 4: 97 nM, 2: 325 nM)

----------
Tested on: SUDHL10
procedure summary: Induction of caspase-3/7 activity (Caspase-Glo 3/7), SUDHL10
Assay type: cell-based
condition notes: Homo sapiens, SU-DHL10, 3 h, caspase-3/7 induction, SUDHL10 cells, 3 h treatment; median
measurement name: EC50

Example results:
{"molecule": "COCCn1nc2c(c1C)-c1cccc3c(CCCOc4cccc5ccccc45)c(C(=O)O)n(c13)CCCN(C)C2 (racemic)", "EC50": "> 33 µM"}
{"molecule": "Cn1nc(COCc2ccc(C(N)=O)cc2)c2c1COCCCCn1c(C(=O)O)c(CCCOc3cccc4ccccc34)c3cccc-2c31 (racemic)", "EC50": "32.4 µM"}
{"molecule": "CN1CCN(Cc2c3c(nn2C)COCCCCn2c(C(=O)O)c(CCCOc4cccc5ccccc45)c4cccc-3c42)CC1 (racemic)", "EC50": "> 33 µM"}

Looking for the measured EC50 of CN1CCN(Cc2c3c(nn2C)COC/C=C\Cn2c(C(=O)O)c(CCCOc4cccc5ccccc45)c4cccc-3c42)CC1 (racemic) , can you help?
> 33 µM

Likewise for Cc1nn(C)c2c1-c1cccc3c(CCCOc4cccc5ccccc45)c(C(=O)O)n(c13)CCCCOC2 (single isomer, unassigned; enantiomer 1) [Example 317] ?
> 33 µM

Now consider COCCn1nc(C2CC2)c2c1COCCCCn1c(C(=O)O)c(CCCOc3cccc4ccccc34)c3cccc-2c31 (racemic) and answer again.
> 33 µM
